Where do the numbers come from? From patent US9902696B2.

Listed compounds paired with reported melting point
Structures can show the parent of a compound that is named as a salt.
assayMetric: melting point (°C)

• CC(C)C(=O)N1CC(Oc2ccc(-c3cnc4ccccc4c3)cc2)C1 = 162
• CCC(=O)N1CC[C@@H](Oc2ccc(-c3ccc4cccnc4c3)cc2)C1 (as salt: HCl) = 53
• CCCONC(=O)N1CCC(Oc2ccc(-c3ccc4c(C)nccc4c3)cc2)CC1 = 165
• Cc1nccc2cc(-c3ccc(OC4CCN(C(=O)NCC5CC5)CC4)cc3)ccc12 = 188
• Cc1nccc2cc(-c3ccc(OC4CCN(C(=O)NO)CC4)cc3)ccc12 = 185
• Cc1nccc2cc(-c3ccc(OC4CCN(C(N)=O)CC4)cc3)ccc12 = 232
• CCONC(=O)N1CCC(Oc2ccc(-c3ccc4c(C)nccc4c3)cc2)CC1 = 208
• O=C(NO)N1CCC(Oc2ccc(-c3ccc4nccn4c3Cl)cc2)CC1 = 232
